# measuredOn: UniProtKB Q9Y4C1
# Sequence (Q9Y4C1 whole entry): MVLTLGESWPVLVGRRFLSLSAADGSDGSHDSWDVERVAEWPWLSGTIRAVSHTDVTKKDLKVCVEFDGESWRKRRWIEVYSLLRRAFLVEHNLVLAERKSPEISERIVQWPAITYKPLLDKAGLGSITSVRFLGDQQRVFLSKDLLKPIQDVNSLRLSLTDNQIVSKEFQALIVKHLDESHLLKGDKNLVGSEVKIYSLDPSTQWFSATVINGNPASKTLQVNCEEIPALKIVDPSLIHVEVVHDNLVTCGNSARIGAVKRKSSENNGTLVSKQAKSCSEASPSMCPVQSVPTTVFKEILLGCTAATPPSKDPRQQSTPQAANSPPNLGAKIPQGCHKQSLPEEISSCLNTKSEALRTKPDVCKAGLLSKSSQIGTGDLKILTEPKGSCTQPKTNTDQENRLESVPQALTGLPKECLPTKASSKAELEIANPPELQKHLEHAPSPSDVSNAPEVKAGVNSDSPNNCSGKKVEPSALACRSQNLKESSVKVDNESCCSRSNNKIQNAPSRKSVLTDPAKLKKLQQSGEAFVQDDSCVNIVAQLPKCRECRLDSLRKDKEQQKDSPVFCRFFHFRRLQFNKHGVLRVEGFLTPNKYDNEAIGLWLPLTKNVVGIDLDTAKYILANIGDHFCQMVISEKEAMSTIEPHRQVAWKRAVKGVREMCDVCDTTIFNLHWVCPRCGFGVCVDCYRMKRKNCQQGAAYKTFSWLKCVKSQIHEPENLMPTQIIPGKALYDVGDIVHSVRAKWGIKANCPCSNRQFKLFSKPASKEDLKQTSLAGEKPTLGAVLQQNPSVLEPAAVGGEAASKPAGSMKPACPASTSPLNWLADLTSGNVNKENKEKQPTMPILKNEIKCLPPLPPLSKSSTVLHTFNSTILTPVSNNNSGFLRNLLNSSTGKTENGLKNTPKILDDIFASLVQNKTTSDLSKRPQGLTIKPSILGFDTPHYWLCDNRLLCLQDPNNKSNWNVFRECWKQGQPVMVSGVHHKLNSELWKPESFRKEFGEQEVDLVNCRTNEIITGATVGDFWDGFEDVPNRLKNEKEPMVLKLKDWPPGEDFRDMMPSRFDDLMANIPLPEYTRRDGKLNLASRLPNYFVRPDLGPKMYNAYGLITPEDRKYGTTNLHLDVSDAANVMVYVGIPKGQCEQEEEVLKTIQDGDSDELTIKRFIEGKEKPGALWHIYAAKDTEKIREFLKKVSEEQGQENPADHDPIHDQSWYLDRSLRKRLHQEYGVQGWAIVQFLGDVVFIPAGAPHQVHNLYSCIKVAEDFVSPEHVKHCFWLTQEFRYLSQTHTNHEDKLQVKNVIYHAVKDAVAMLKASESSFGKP
Overview of recorded IC50 for various compounds

CCCCCCN(CCCC)CCCCC(=O)N(O)CCC(=O)O: > 100 µM

In the following, a different compound is considered.
Record CCCCCCN(C)CCCCC(=O)N(O)CCC(=O)O , field IC50: > 100 µM

###

# measuredOn: Histone lysine demethylase PHF8 (Homo sapiens)
# Sequence (Q9UPP1 whole entry): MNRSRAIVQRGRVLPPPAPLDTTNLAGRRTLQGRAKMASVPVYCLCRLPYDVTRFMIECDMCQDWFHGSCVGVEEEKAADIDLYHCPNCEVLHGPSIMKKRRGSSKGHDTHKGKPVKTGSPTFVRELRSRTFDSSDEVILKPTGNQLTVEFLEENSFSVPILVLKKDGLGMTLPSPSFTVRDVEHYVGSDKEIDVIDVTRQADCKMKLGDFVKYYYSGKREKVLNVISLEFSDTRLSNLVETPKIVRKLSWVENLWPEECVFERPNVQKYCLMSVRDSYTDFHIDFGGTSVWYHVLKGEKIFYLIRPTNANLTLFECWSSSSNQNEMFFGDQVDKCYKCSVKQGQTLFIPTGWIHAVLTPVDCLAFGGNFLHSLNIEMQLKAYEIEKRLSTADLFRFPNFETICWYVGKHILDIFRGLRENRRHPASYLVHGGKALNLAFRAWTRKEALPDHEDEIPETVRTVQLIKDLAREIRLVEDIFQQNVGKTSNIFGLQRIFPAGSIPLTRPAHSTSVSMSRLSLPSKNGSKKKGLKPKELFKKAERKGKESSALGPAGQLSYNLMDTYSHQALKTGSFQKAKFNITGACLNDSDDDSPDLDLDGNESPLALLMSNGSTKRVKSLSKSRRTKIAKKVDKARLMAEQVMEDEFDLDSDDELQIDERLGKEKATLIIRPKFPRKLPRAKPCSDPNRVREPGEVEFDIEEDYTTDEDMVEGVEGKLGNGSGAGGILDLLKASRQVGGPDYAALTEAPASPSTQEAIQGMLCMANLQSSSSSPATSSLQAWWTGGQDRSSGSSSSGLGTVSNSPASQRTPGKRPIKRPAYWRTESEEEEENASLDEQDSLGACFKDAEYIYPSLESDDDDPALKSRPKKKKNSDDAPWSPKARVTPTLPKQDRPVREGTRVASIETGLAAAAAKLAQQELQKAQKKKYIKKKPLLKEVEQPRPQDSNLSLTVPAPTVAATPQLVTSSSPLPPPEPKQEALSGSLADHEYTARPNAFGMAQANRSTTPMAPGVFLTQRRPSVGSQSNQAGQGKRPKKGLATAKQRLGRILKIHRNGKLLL
experimentalReadout: pIC50
As a rule, pIC50 stands for the negative log10 of the concentration, concentration in M.

Input CCCCCCN(CCCC)CCCCC(=O)N(O)CCC(=O)O . Output pIC50: 4.54
